Target: T1, CRBN, Q96SW2;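 further: pooled lentiviral library of zinc finger degron-EGFP fusions in mCherry-positive Jurkat cells, FACS-sorted after compound exposure, with degron abundance counted by next-generation sequencing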
T1 chain: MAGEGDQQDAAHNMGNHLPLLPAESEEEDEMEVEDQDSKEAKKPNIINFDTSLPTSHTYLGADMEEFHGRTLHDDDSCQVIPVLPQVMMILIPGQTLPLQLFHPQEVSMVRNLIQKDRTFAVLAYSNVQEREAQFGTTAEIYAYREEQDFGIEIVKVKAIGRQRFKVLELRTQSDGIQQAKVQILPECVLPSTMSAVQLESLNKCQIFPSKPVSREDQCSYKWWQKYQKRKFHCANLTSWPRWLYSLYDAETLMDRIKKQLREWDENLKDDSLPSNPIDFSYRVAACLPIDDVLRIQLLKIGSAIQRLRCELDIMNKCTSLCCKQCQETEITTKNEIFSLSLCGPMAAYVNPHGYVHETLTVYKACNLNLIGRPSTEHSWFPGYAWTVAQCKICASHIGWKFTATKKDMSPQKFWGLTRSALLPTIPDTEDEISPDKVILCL
Test: log2 fold change of degron read counts, EGFP-low vs EGFP+ sorted cells (limma voom), compound-induced degradation; higher = more compound-induced degradation of the degron-EGFP fusion; degrons are variants of IKZF1/3 zinc finger 2; compound dose not given here
Details: Jurkat; 18 h; compound: compound 33 (diphenyl IMiD analogue)
Over roughly 8,300 sequences, “log2 fold change of degron read counts, EGFP-low vs EGFP+ sorted cells (limma voom), compound-induced degradation” has its median near -1.1; the highest 2% begin near 3.2. The sample as a whole holds a higher share of the highest values than the screen did.
MEASURED ATTRIBUTE: log2 fold change of degron read counts
Note: the reply should be a number with no unit written.

Problem: State, in one line, measured log2 fold change of degron read counts of FCCPICGAYFTQKGNLLRHIKL [46F_47C_49P_50I_52G_53A_54Y_55F_67L_, Q9UKT9]
Result: 1.52

Problem: Supply log2 fold change of degron read counts value. Item: FRCEICGRSFTQKGNLLRHIKL [46F_47R_49E_50I_52G_53R_54S_55F_67L_, Q9UKT9]
Result: -0.226

Problem: Check the records and state log2 fold change of degron read counts for FNCEVCGAEFTQKGNLLRHIKL [46F_47N_49E_50V_52G_53A_54E_55F_67L_, Q9UKT9]
Result: -1.23

Problem: Let me know recorded log2 fold change of degron read counts for FYCEVCGAEFTQKGNLLRHIKL [46F_47Y_49E_50V_52G_53A_54E_55F_67L_, Q9UKT9] , thanks.
Result: 2.08

Problem: Provide measured log2 fold change of degron read counts value, entry: FQCPICGAYFTQKGNLLRHIKL [46F_47Q_49P_50I_52G_53A_54Y_55F_67L_, Q9UKT9]
Result: 1.61

Problem: State its log2 fold change of degron read counts for this sequence: FTCEVCGAEFTQKGNLLRHIKL [46F_47T_49E_50V_52G_53A_54E_55F_67L_, Q9UKT9]
Result: 0.247

Problem: Respond only with log2 fold change of degron read counts recorded for FDCPICGAAFTQKGNLLRHIKL [46F_47D_49P_50I_52G_53A_54A_55F_67L_, Q9UKT9]
Result: 1.79

Problem: Kindly indicate its recorded log2 fold change of degron read counts. Item: FQCPVCGAEFTQKGNLLRHIKL [46F_47Q_49P_50V_52G_53A_54E_55F_67L_, Q9UKT9]
Result: 2.3

Problem: Please give measured log2 fold change of degron read counts of the following entry: FTCPICGAAFTQKGNLLRHIKL [46F_47T_49P_50I_52G_53A_54A_55F_67L_, Q9UKT9]
Result: 2.48

Problem: Give a short answer stating reported log2 fold change of degron read counts for FMCPICGAAFTQKGNLLRHIKL [46F_47M_49P_50I_52G_53A_54A_55F_67L_, Q9UKT9] .
Result: 2.94

Problem: Determine from records and report log2 fold change of degron read counts for FHCNQCGHNFTQKGNLLRHIKL [46F_47H_49N_50Q_52G_53H_54N_55F_67L_, Q9UKT9]
Result: -2.46

Problem: Name the recorded log2 fold change of degron read counts of the item FYCPICGAYFTQKGNLLRHIKL [46F_47Y_49P_50I_52G_53A_54Y_55F_67L_, Q9UKT9] in your answer.
Result: 2.39

Problem: For the sequence LHCPICGFWCTQKGNLLRHIKL [46L_47H_49P_50I_52G_53F_54W_55C_67L_, Q9UKT9] , give its measured log2 fold change of degron read counts value.
Result: 2.54

Problem: Dear colleague, please send me the reported log2 fold change of degron read counts for FWCPICGAYFTQKGNLLRHIKL [46F_47W_49P_50I_52G_53A_54Y_55F_67L_, Q9UKT9] when you can.
Result: 2.4

Problem: Annotate the sequence FLCPICGAAFTQKGNLLRHIKL [46F_47L_49P_50I_52G_53A_54A_55F_67L_, Q9UKT9] with its measured log2 fold change of degron read counts.
Result: 1.82

// provenance: the supplement of paper PMC12645437
